# Tested on: corn
# assay_procedure: Test C preemergence
# Format: in vivo, Zea mays
# assay_setup: preemergence, 125 g ai/ha; 13 to 15 days; scale 0 to 100, 0 = no effect, 100 = complete control
property: Plant response rating, Corn
Give a plain numeric answer without units written out.

### Prompt Hello, I am looking for reported Plant response rating, Corn with corn for "CCCNC(=O)c1cc(CCF)n(Cc2ccnc(C(F)(F)F)c2)n1" . Could you help?
### Response 90

### Prompt Same lookup for "CCNC(=O)c1cc(CC)n(Cc2cc(C(F)(F)F)nn2C)n1" , please.
### Response 40

### Prompt Try the molecule "CCCc1cc(C(=O)NC2CC2)nn1Cc1cc(C(F)(F)F)nn1C"
### Response 60

### Prompt Try this molecule next: "CCOc1cc(C(=O)NCC(F)(F)F)nn1Cc1ccnc(OC(F)F)c1"
### Response 65

### Prompt What about this molecule? "CCNC(=O)c1cc(CCF)n(Cc2ccnc(C(F)(F)F)c2)n1"
### Response 25

### Prompt And "CCCc1cc(C(=O)NC(C)C)nn1Cc1ccnc(C(F)(F)F)c1" ?
### Response 95

### Prompt Next molecule up: "CCONC(=O)c1cc(CC)n(Cc2ccnc(OC(F)F)c2)n1"
### Response 95

### Prompt Request: "CCCc1cc(C(=O)NCC(F)(F)F)nn1Cc1ccnc(OC(F)F)c1"
### Response 65
